- System: BT474
- method summary: Cytotoxicity assay (SRB), BT474
- Format: cell-based
- condition description: Homo sapiens, BT-474, 144 h, BT474 cells, SRB, 6 days; read-out: In Vitro Cellular Activity IC50 BT474
// IC50 lookup, one value per entry

Here are 3 compounds together with their reported answers.
CC(=O)Oc1cc(CN/C=C2\C(=O)NC(=O)c3ccc(Br)cc32)cc2c1OC(C)(C)O2 [Example 268] ... > 50000 nM
O=C1NC(=O)c2ccc(Br)cc2/C1=C/NCc1ccc(OCc2ccccc2)c(O)c1 [Example 147] ... > 50000 nM
COc1ccc(C#Cc2ccc3c(c2)/C(=C/Nc2ccc(N4CCN(C)CC4)cc2)C(=O)NC3=O)cc1 [Example 172] ... 17000 nM

Looking for the measured IC50 of COC[C@@H]1CCCN1Cc1ccc(N/C=C2\C(=O)NC(=O)c3ccc(I)cc32)cc1 [Example 285] , can you help?
370 nM

Also O=C1NC(=O)c2ccc(-c3ccoc3)cc2/C1=C/NCc1ccc(OC(F)F)c(O)c1 [Example 199] ?
1300 nM

Also Cc1cc(N/C=C2\C(=O)NC(=O)c3ccc(-c4ccsc4)cc32)cnc1N1C[C@@H](C)N[C@@H](C)C1 [Example 356] ?
3000 nM

Also COc1ccc(-c2ccc3c(c2)/C(=C/Nc2cnc(N4C[C@@H](C)N[C@@H](C)C4)c(C)c2)C(=O)NC3=O)cc1 [Example 357] ?
2500 nM

###

// IC50 lookup, one value per entry
- system: cyclin E/CDK2 enzyme (Homo sapiens, UniProt P24941)
- Construct: made in house; host or cells: Sf9 insect cells, recombinant baculovirus
- method summary: CDK2 ELISA kinase assay (phospho-Rb ser 795 detection)
- Format: biochemical
- condition description: In Vitro Enzyme Assays, read-out: CDK2 IC50

C=CCN1CCCC1c1ccc(N/C=C2\C(=O)NC(=O)c3ccc(-c4ccsc4)cc32)cc1 (centres unmarked) ... > 50 µM
NC(=O)C1CCN(c2ccc(N/C=C3\C(=O)NC(=O)c4ccc(I)cc43)cc2)CC1 ... 15.4 µM
O=C1NC(=O)c2ccc(I)cc2/C1=C/Nc1ccc(N2CCN(Cc3ccco3)CC2)cc1 ... > 50 µM
CCCOc1cc(CN/C=C2\C(=O)NC(=O)c3ccc(Br)cc32)cc(O)c1OCCC ... > 50 µM
CN1CCC(c2ccc(N/C=C3\C(=O)NC(=O)c4ccc(Br)cc43)cc2)CC1 ... > 50 µM

Looking for the measured IC50 of "CO[C@@H]1CCN(Cc2ccc(N/C=C3\C(=O)NC(=O)c4ccc(Br)cc43)cc2)C1" , can you help?
> 50 µM

Also "CCC(=O)Nc1ccc(CN/C=C2\C(=O)NC(=O)c3ccc(I)cc32)cc1O" ?
0.59 µM

Also O=C1NC(=O)c2ccc(I)cc2/C1=C/Nc1ccc(CN2CCCCC2CO)cc1 (centres unmarked) ?
> 50 µM

###

- system: cyclin E/CDK2 enzyme (Homo sapiens)
- Construct: made in house; host or cells: Sf9 insect cells, recombinant baculovirus
- method summary: CDK2 ELISA kinase assay (phospho-Rb ser 795 detection)
- Assay type: biochemical
- condition description: CDK2 IC50, In Vitro Enzyme Assays
pIC50: −log10 of the molar value.
metric: pIC50

Looking for the measured pIC50 of "CCN(CC)C(=O)Oc1cc(CN/C=C2\C(=O)NC(=O)c3ccc(I)cc32)ccc1OC" , can you help?
< 4.30
